molecular target: Bcl-xL (biotinylated pro-survival Bcl-2 family protein) (UniProt Q07817 1-209, biotinylated (co-expressed E. coli biotin ligase BirA)); experiment: flow cytometry of E. coli displaying the peptide on eCPX, biotinylated target + streptavidin-PE; apparent Kd
Sequence (Q07817 1-209): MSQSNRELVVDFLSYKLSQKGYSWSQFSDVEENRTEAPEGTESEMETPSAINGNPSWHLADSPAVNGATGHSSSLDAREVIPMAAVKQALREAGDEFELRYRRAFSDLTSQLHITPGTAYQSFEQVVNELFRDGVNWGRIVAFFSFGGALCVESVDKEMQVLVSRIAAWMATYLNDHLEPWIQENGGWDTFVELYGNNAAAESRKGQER
Where no end group is shown, it is not given here. eCPX = enhanced circularly permuted OmpX display scaffold; linker = not defined here
RECORDED_METRIC: Kd (nM)

# BINDER, RECORDED_METRIC, VALUE
measured = [
    ("WIAQELRRIGDEFN-{linker-eCPX} (reading uncertain, also called WT; Bim WT; not shown: eCPX (enhanced circularly permuted OmpX) display scaffold and its linker, fused C-terminal to the peptide) [wild-type Bim BH3 14-mer peptide (residues 147-160) displayed on eCPX]", "Kd", 251),
    ("WVAQTLRRWGDEFN-{linker-eCPX} (reading uncertain; also: printed as Trp-Val-Ala-Gln-Thr-Leu-Arg-Arg-Trp-Gly-Asp-Glu-Phe-Asn, Clone selected against Bcl-xL; not shown: eCPX display scaffold and its linker, fused C-terminal to the peptide) [Bim BH3 14-mer variant X2-10 displayed on eCPX]", "Kd", 17),
    ("WVAQWLRRWGDEFN (also: displayed as fusion to eCPX scaffold (letters not given here), Clone selected against Bcl-xL; not shown: eCPX display scaffold and the linker to it) [Bim BH3 14-mer variant X2-3 displayed on eCPX]", "Kd", 9.28),
    ("WLAQLLRRYGDEFN (also: displayed as fusion to eCPX scaffold (letters not given here), Clone selected against Bcl-xL; not shown: eCPX display scaffold and the linker to it) [Bim BH3 14-mer variant X2-8 displayed on eCPX]", "Kd", 17.8),
]
